Where do these numbers come from? They come from patent EP0908457B1.

// reported herbicidal effect rating, CYPIR for each item listed
test system: Cyperus iria; experiment: Preemergence weed control under flooded paddy conditions, CYPIR (Rice Flatsedge); assay type: in vivo; settings: Rate 0.2500 kg/ha; preemergence, flooded paddy; rated 3-4 weeks after treatment; for herbicidal effect rating, CYPIR: meaning of each grade not given here
Hey, just send me the number, nothing else.

>>> quantitative_readout("CNC(=O)COc1ccc(C)cc1-c1nsc2ccc(-n3c(=O)cc(C(F)(F)F)n(C)c3=O)cc12")
9.0
>>> quantitative_readout("CCS(=O)(=O)NC(=O)COc1ccc(C)cc1-c1nsc2ccc(-n3c(=O)cc(C(F)(F)F)n(C)c3=O)cc12")
9.0
>>> quantitative_readout("CC(C)S(=O)(=O)NC(=O)COc1ccccc1-c1nsc2ccc(-n3c(=O)cc(C(F)(F)F)n(C)c3=O)cc12")
9.0
>>> quantitative_readout("CC/C=C/CCCCCCCCCCOC(=O)COc1ccc(C)cc1-c1nsc2ccc(-n3c(=O)cc(C(F)(F)F)n(C)c3=O)cc12")
9.0
>>> quantitative_readout("CSCCCCOC(=O)COc1ccc(C)cc1-c1nsc2ccc(-n3c(=O)cc(C(F)(F)F)n(C)c3=O)cc12")
4.0

The record that follows has no herbicidal effect rating, CYPIR shown yet.
# lookup: herbicidal effect rating, CYPIR of CCOC(=O)C(F)(F)Oc1ccc(C)cc1-c1nsc2ccc(-n3c(=O)cc(C(F)(F)F)n(C)c3=O)cc12
0.0

---

The compounds listed here are annotated with their herbicidal effect rating, CYPIR.
test system: Cyperus iria; experiment: Preemergence weed control under flooded paddy conditions, CYPIR (Rice Flatsedge); assay type: in vivo; conditions: 0.0625 kg/ha; preemergence weeds, flooded paddy; rated three to four weeks after treatment; for herbicidal effect rating, CYPIR: meaning of each grade not given here
Reply with just the number.

>>> quantitative_readout("Cn1c(C(F)(F)F)cc(=O)n(-c2ccc3snc(COCCCl)c3c2)c1=O [Example 198]")
2.0
>>> quantitative_readout("CCc1nsc2ccc(-n3c(=O)cc(C(F)(F)F)n(C)c3=O)cc12 [Example 119]")
9.0
>>> quantitative_readout("CCN(CC)c1nsc2ccc(-n3c(=O)cc(C(F)(F)F)n(C)c3=O)cc12 [Example 118]")
0.0
>>> quantitative_readout("COCCOC(=O)COc1ccc(C)cc1-c1nsc2ccc(-n3c(=O)cc(C(F)(F)F)n(C)c3=O)cc12 [Example 191]")
0.0

Find the recorded herbicidal effect rating, CYPIR belonging to C=CCOCc1nsc2ccc(-n3c(=O)cc(C(F)(F)F)n(C)c3=O)cc12 [Example 196] and report it.
0.0

What value of herbicidal effect rating, CYPIR has been recorded for this entry: Cc1ccc(S(=O)(=O)NC(=O)COc2ccc(C)cc2-c2nsc3ccc(-n4c(=O)cc(C(F)(F)F)n(C)c4=O)cc23)cc1 [Example 122]
0.0

Value lookup for herbicidal effect rating, CYPIR; key = CCOCCOCc1nsc2ccc(-n3c(=O)cc(C(F)(F)F)n(C)c3=O)cc12 [Example 200]
6.0

Field request: herbicidal effect rating, CYPIR | item: Cn1c(C(F)(F)F)cc(=O)n(-c2ccc3snc(C(Cl)Cl)c3c2)c1=O [Example 114]
9.0

---

tested on: Monochoria vaginalis, Presl.; assay: Preemergence weed control under flooded paddy conditions, MOOVA (Monochoria); format: in vivo; details: 0.2500 kg/ha; preemergence weeds, flooded paddy; rated three to four weeks after treatment; note: meaning of each grade not given here
property.name: herbicidal effect rating, MOOVA
Field format: numeric only.

>>> quantitative_readout("Cn1c(C(F)(F)F)cc(=O)n(-c2ccc3snc(NS(C)(=O)=O)c3c2)c1=O")
4.0
>>> quantitative_readout("C#CCNC(=O)COc1ccc(C)cc1-c1noc2ccc(-n3c(=O)cc(C(F)(F)F)n(C)c3=O)cc12")
9.0

Tell me the measured herbicidal effect rating, MOOVA of Cn1c(C(F)(F)F)cc(=O)n(-c2ccc3snc(COC(=O)c4ccccc4)c3c2)c1=O , please.
9.0

---

molecules and their reported herbicidal effect rating, CYPIR
test system: Cyperus iria; test: Preemergence weed control under flooded paddy conditions, CYPIR (Rice Flatsedge); assay type: in vivo; settings: Rate 0.2500 kg/ha; preemergence, flooded paddy; rated 3-4 weeks after treatment; for herbicidal effect rating, CYPIR: meaning of each grade not given here
Quick one: just the number, no unit, thanks!

>>> quantitative_readout("Cc1ccc(OCC(=O)OCC(C)(C)Cc2ccccc2)c(-c2nsc3ccc(-n4c(=O)cc(C(F)(F)F)n(C)c4=O)cc23)c1 [Example 527]")
4.0

So what does the record say about herbicidal effect rating, CYPIR for Cc1ccc(OCC(=O)c2ccc(OC(F)F)cc2)c(-c2nsc3ccc(-n4c(=O)cc(C(F)(F)F)n(C)c4=O)cc23)c1 [Example 543] ?
8.0

What measured herbicidal effect rating, CYPIR goes with Cc1ccc(OCC(=O)NS(=O)(=O)C(C)C)c(-c2nsc3ccc(-n4c(=O)cc(C(F)(F)F)n(C)c4=O)cc23)c1 [Example 560] ?
9.0

For the molecule shown here, C=CS(=O)(=O)NC(=O)COc1ccc(C)cc1-c1nsc2ccc(-n3c(=O)cc(C(F)(F)F)n(C)c3=O)cc12 [Example 553] , give the reported herbicidal effect rating, CYPIR.
9.0

Would you mind telling me what herbicidal effect rating, CYPIR value was observed for Cc1ccc(OCC(=O)OCC2CCOC2)c(-c2nsc3ccc(-n4c(=O)cc(C(F)(F)F)n(C)c4=O)cc23)c1 (racemic) [Example 535] ?
9.0

GET /values?readout=herbicidal effect rating, CYPIR&item= CCOC(=O)c1ccc(NC(=O)C(C)Oc2ccc(C)cc2-c2nsc3ccc(-n4c(=O)cc(C(F)(F)F)n(C)c4=O)cc23)cc1 (stereo not drawn) [Example 541]
6.0

---

tested on: Cyperus iria; assay: Preemergence weed control under flooded paddy conditions, CYPIR (Rice Flatsedge); type: in vivo; details: 0.2500 kg/ha; preemergence, flooded paddy; rated three to four weeks after treatment
property.name: CYPIR herbicidal rating

Example cases with answers are listed next.
>>> result("Cn1c(C(F)(F)F)cc(=O)n(-c2ccc3snc(C(C)(C)C(N)=O)c3c2)c1=O [Example 509]")
7.0
>>> result("Cn1c(C(F)(F)F)cc(=O)n(-c2ccc3snc(C(=O)NS(=O)(=O)CCc4ccccc4)c3c2)c1=O [Example 485]")
6.0
>>> result("COc1ccc(C)cc1-c1nsc2cc(F)c(-n3c(=O)cc(C(F)(F)F)n(C)c3=O)cc12 [Example 462]")
9.0
>>> result("CC(C)OC(=O)C(C)(C)c1nsc2ccc(-n3c(=O)cc(C(F)(F)F)n(C)c3=O)cc12 [Example 489]")
9.0
>>> result("CC(C)N(C(C)C)S(=O)(=O)NC(=O)c1nsc2ccc(-n3c(=O)cc(C(F)(F)F)n(C)c3=O)cc12 [Example 500]")
9.0

Now, please, on to the next compound.
Find the recorded CYPIR herbicidal rating belonging to COCOCc1nsc2ccc(-n3c(=O)cc(C(F)(F)F)n(C)c3=O)cc12 [Example 478] and report it.
9.0

---

system: Monochoria vaginalis, Presl.; experiment: Preemergence weed control under flooded paddy conditions, MOOVA (Monochoria); assay type: in vivo; conditions: Rate 0.0320 kg/ha; preemergence, flooded paddy; rated three to four weeks after treatment; note: meaning of each grade not given here
# key: entry, value: herbicidal effect rating, MOOVA
Please reply with the number alone, leaving off any unit.

>>> quantitative_readout("Cn1c(C(F)(F)F)cc(=O)n(-c2ccc3snc(C(C#N)=Cc4ccccc4C#N)c3c2)c1=O")
6.0
>>> quantitative_readout("C=C(Cl)COC(=O)c1nsc2ccc(-n3c(=O)cc(C(F)(F)F)n(C)c3=O)cc12")
9.0
>>> quantitative_readout("CN(C(=O)c1nsc2ccc(-n3c(=O)cc(C(F)(F)F)n(C)c3=O)cc12)c1ccc(Cl)cc1")
9.0
>>> quantitative_readout("C#CCC(c1nsc2ccc(-n3c(=O)cc(C(F)(F)F)n(C)c3=O)cc12)S(C)(=O)=O (stereo not shown)")
7.0
>>> quantitative_readout("Cn1c(C(F)(F)F)cc(=O)n(-c2ccc3snc(COCc4ccc([N+](=O)[O-])cc4)c3c2)c1=O")
7.0
>>> quantitative_readout("Cn1c(C(F)(F)F)cc(=O)n(-c2ccc3snc(C(C)(C)C(=O)OCc4ccccc4)c3c2)c1=O")
9.0

Please examine the following record next.
Could you tell me which herbicidal effect rating, MOOVA is on file for Cc1cccc(COCc2nsc3ccc(-n4c(=O)cc(C(F)(F)F)n(C)c4=O)cc23)c1 ?
5.0

---

tested on: Sagittaria pygmaea, L.; test: Preemergence weed control under flooded paddy conditions, SAGPY (Arrowhead (Pygmaea)); format: in vivo; details: Rate 0.1250 kg/ha; preemergence, flooded paddy; rated 3-4 weeks after treatment; note: meaning of each grade not given here
Measured herbicidal effect rating, SAGPY, listed per entry.
Hey, just send me the number, nothing else.

>>> quantitative_readout("C=CCOC(=O)/C=C/c1nsc2ccc(-n3c(=O)cc(C(F)(F)F)n(C)c3=O)cc12 [Example 566]")
0.0

Any idea what its herbicidal effect rating, SAGPY is? The compound is COCCOC(=O)C(C)(C)Oc1ccc(C)cc1-c1nsc2ccc(-n3c(=O)cc(C(F)(F)F)n(C)c3=O)cc12 [Example 546]
4.0

# get_value(readout='herbicidal effect rating, SAGPY', item= Cc1ccc(OC(C)C(=O)c2ccc(C)c(C)c2)c(-c2nsc3ccc(-n4c(=O)cc(C(F)(F)F)n(C)c4=O)cc23)c1 (stereo not drawn) [Example 542] )
0.0
